Target: Metabotropic glutamate receptor 1 (Mus musculus)
Sequence (P97772 whole entry): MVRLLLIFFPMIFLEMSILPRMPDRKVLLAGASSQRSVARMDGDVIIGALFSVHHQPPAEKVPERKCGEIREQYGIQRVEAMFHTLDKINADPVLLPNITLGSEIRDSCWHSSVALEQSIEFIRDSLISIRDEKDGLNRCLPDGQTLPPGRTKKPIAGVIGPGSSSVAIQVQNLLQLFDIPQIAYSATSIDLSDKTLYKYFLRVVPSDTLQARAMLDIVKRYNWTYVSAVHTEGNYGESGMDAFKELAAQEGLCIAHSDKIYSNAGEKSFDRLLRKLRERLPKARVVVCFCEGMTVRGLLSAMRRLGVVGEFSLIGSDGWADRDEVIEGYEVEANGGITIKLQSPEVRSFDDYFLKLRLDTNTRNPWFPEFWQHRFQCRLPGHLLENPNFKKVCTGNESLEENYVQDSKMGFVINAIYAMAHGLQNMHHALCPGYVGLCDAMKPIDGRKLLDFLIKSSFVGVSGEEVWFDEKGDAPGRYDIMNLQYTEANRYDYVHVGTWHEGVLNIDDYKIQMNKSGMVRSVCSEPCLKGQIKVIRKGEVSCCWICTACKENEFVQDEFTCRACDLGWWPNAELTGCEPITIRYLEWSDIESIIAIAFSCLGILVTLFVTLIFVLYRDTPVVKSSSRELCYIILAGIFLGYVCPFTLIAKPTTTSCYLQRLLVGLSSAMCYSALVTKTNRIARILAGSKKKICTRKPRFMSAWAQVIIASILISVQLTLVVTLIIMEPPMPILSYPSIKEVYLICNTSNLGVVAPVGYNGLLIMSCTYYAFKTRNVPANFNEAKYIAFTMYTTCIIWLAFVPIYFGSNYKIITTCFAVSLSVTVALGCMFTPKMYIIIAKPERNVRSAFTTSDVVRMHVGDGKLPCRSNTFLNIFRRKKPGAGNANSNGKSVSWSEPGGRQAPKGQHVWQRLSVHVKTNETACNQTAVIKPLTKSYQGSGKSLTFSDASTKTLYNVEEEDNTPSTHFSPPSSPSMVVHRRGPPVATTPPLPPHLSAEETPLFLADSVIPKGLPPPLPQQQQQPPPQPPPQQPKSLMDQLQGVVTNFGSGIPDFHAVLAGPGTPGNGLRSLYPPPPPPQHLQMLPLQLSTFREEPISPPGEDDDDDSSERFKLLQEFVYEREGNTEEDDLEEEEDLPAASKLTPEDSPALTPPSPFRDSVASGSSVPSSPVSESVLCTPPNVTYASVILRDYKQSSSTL
Experiment: Antagonist activity at mouse mGluR1 expressed in CHO cells assessed as calcium flux by FLIPR assay
pIC50: −log10 of the molar value.
Label rule, in plain words: pIC50 of 7 and up is YES, under 7 is NO.

smiles notation	class assignment
CC(C)(C)OC(=O)N1CC=C(c2cn(-c3ccccc3)nn2)CC1	YES
Cc1c(C2=CCN(C(=O)N(C)C(C)C)CC2)nnn1-c1cccnc1F	YES
Cc1ccccc1-n1cc(C2=CCN(C(=O)OC(C)(C)C)CC2)nn1	YES
CC(C)OC(=O)N1CC=C(c2cn(-c3cccnc3F)nn2)CC1	NO
CC(C)(C)OC(=O)N1CC=C(c2cn(-c3cccc(F)c3)nn2)CC1	YES
